- Tested on: human lung cancer strain NCI-H441
- Assay type: cell-based
- Method: A test compound was dispensed into a U-bottom 384-well plate as 40 nL serially diluted dimethyl sulfoxide solutions using a liquid handler Echo (LABCYTE). […] This cell suspension was dispensed in an amount of 40 µL per well into a plate containing the test compound, and cultured at 37°C in a 5% carbon dioxide gas incubator. Four days later, 20 µL of CellTiter-Glo (registered trademark) (Promega) was added to each well and […] was measured. […]
Where a SMILES comes first, the peptide text is derived from it. Bridges are numbered along the chain shown (N, C = ends). [ ]: non-standard residue; d: D form. The star is where a group is joined. hPhe(3-Cl-4-CF3) = N[C@@H](CCc1ccc(C(F)(F)F)c(Cl)c1)C(=O)O; NMePhe(4-Me) = CN[C@@H](Cc1ccc(C)cc1)C(=O)O; NMeGly(cPent) = CN[C@H](C(=O)O)C1CCCC1; NMeD = CN[C@@H](CC(=O)O)C(=O)O; NMeL = CN[C@@H](CC(C)C)C(=O)O; Morpholide = C1CN(*)CCO1; Ac5c = NC1(C(=O)O)CCCC1; NEtG = CCNCC(=O)O; Sar = CNCC(=O)O
IC50 reference
measured_parameter: IC50 (nM)

>>> numeric_result("CCCN(C)C(=O)[C@@H]1CC(=O)N(C)[C@@H](COC)C(=O)N[C@@H]([C@@H](C)CC)C(=O)N(C)CC(=O)N(C)[C@H]2C/C=C\\CCN(C2=O)[C@@H](Cc2ccc(C(F)(F)F)cc2)C(=O)N(C)CC(=O)N[C@@H](CCc2cc(F)c(C(F)(F)F)c(F)c2)C(=O)N2C[C@H](OCC)C[C@H]2C(=O)NC2(CC(C)(C)C2)C(=O)N(C)[C@@H](C2CCCC2)C(=O)N1C")
6
>>> numeric_result("CC[C@H](C)[C@@H]1NC(=O)[C@H](CC(C)C)N(C)C(=O)C[C@@H](C(=O)N2CCOCC2)N(C)C(=O)[C@H](C2CCCC2)N(C)C(=O)C2(CCCC2)NC(=O)[C@@H]2CCCN2C(=O)[C@H](CCc2ccc(C(F)(F)F)c(Cl)c2)NC(=O)CN(C)C(=O)[C@H](Cc2ccc(C)cc2)N(C)C(=O)CN(CC)C(=O)CN(C)C1=O [PP0019] ([NMeL]I[Sar][NEtG][NMePhe(4-Me)][Sar][hPhe(3-Cl-4-CF3)]P[Ac5c][NMeGly(cPent)][NMeD]-Morpholide; lactam N-11)")
6.7
>>> numeric_result("CC[C@H](C)[C@@H]1NC(=O)[C@H](COC)N(C)C(=O)C[C@@H](C(=O)N(C)C)N(C)C(=O)[C@H](C2CCCC2)N(C)C(=O)C2(CC(C)(C)C2)NC(=O)[C@@H]2CC(F)(F)CN2C(=O)[C@H](CCc2cc(F)c(C(F)(F)F)c(F)c2)NC(=O)CN(C)C(=O)[C@H](Cc2ccc(C(F)(F)F)cc2)N2CC/C=C\\C[C@@H](C2=O)N(C)C(=O)CN(C)C1=O")
2.4

###

- measured_target: GDP-bound KRAS wild-type protein (Homo sapiens)
- Sequence (P01116 1-188 isoform P01116-2): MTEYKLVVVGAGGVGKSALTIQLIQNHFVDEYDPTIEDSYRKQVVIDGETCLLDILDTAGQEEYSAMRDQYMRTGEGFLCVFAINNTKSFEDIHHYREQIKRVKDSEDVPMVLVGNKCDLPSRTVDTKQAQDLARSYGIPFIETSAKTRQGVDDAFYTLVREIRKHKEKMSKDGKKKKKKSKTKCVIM
- assay_protocol: Binding to KRAS by surface plasmon resonance (SPR), dissociation constant KD
- particulars: Single Cycle Kinetics, 1:1 binding model
measured_parameter: Kd (nM)

>>> numeric_result("CC[C@H](C)[C@@H]1NC(=O)[C@H](CC(C)C)N(C)C(=O)C[C@@H](C(=O)N(C)C)N(C)C(=O)[C@H](C2CCCC2)N(C)C(=O)C2(CCCC2)NC(=O)[C@@H]2CCCN2C(=O)[C@H](CCc2ccc(C(F)(F)F)c(Cl)c2)NC(=O)CN(C)C(=O)[C@H](Cc2ccc(C)cc2)N2CC=C(C)C[C@@H](C2=O)N(C)C(=O)CN(C)C1=O")
0.69
>>> numeric_result("C#CCN1CC(=O)N(C)[C@H]2C/C=C\\CCN(C2=O)[C@@H](Cc2ccc(C)cc2)C(=O)N(C)CC(=O)N[C@@H](CCc2ccc(C(F)(F)F)c(OC)c2)C(=O)N2C[C@H](OCC)C[C@H]2C(=O)NC2(CC(C)(C)C2)C(=O)N(C)[C@@H](C2CCCC2)C(=O)N(C)[C@H](C(=O)N(C)C)CC(=O)N(C)[C@@H](CCC)C(=O)N[C@@H]([C@@H](C)CC)C1=O")
0.14
>>> numeric_result("CCO[C@@H]1C[C@H]2C(=O)NC3(CCCC3)C(=O)N(C)[C@@H](C3CCCC3)C(=O)N(C)[C@H](C(=O)N(C)C)CC(=O)N(C)[C@@H](CC)C(=O)N[C@@H]([C@@H](C)CC)C(=O)N(C)CC(=O)N(C)[C@H]3C[C@H](C)C(C)CN(C3=O)[C@@H](Cc3ccc(C(F)(F)F)cc3)C(=O)N(C)CC(=O)N[C@@H](CCc3cc(F)c(C(F)(F)F)c(F)c3)C(=O)N2C1 (stereo partly drawn)")
0.017
